Values from PubChem BioAssay AID1159580

# EXPERIMENT SUMMARY: chemical genetic growth profiling, strain panel (AID 1159580);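 note: tested at 20 µM; growth read once vehicle control cultures reached saturation at 30 °C; 1 = growth at the plate median or of vehicle wells; lower values mean less growth of the strain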
# ASSAY CONTEXT: S. cerevisiae deletion strains, growth OD, locus YDL017W, strain CDC7, hits give low values
About 2,000 (36%) of roughly 5,500 compounds were called active. Another 18% or so got no clear call; they are omitted. This is one part of the list.

COMPOUND | normalized growth
CC(O)(CNCc1ccc(Cl)cc1)CSc1ccccc1Cl (stereo unspecified) | 0.992
N/C(CSc1ccc(Cl)cc1)=N/OC(=O)c1ccc(C(F)(F)F)cc1 | 0.893
COc1ccc(C2CC(c3ccccc3)=Nc3ccccc3S2)cc1OC (stereo unspecified) | 0.965
O=C1c2ccccc2O[C@@H](c2ccccc2)[C@@H]1NCc1ccccc1 | 0.915
CC(C)c1ccc(-c2cc(=O)c3ccccc3o2)cc1 | 0.932
O=C1c2ccccc2O[C@@H](c2ccccc2)[C@@H]1NC1CCCCC1 | 0.914
Cc1cc(C(=O)O/N=C(/N)CSc2ncccc2C(F)(F)F)no1 | 0.995
Cc1nc(-c2ccc(C(F)(F)F)cn2)[nH]c(=O)c1Cl | 0.938
N/C(CSc1ncccc1C(F)(F)F)=N/OC(=O)Nc1cccc(Cl)c1 | 0.996
O=C(NNC(=O)c1csc(-c2cccs2)n1)c1ccc(C(F)(F)F)cc1 | 0.961
O=C(NCc1cccs1)c1csc(Cc2c(Cl)cccc2Cl)n1 | 0.987
